molecular target: UniProtKB P05412
Sequence (P05412 whole entry): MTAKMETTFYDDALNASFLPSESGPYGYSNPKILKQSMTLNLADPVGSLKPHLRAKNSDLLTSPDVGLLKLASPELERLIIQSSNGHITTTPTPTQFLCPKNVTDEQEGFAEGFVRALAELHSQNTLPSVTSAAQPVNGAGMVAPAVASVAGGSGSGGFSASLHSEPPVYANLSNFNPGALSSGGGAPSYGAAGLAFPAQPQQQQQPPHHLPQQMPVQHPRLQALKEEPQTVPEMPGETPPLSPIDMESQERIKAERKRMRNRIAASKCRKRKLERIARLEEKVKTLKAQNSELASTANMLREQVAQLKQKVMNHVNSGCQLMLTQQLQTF
Threshold 200 nM: IC50 strictly smaller gives Met, otherwise Not met.

>  <LINE_NOTATION>
Cn1cc(-c2ccc3cnc(Nc4ccc(-n5cnc(N6CCOCC6)n5)cc4)nc3c2)cn1

>  <GROUP>
Not met

$$$$
>  <LINE_NOTATION>
COc1ccc(-c2cccc3cnc(Nc4ccc(-n5cnc(-c6ccccn6)n5)cc4)nc23)cc1F

>  <GROUP>
Not met

$$$$
>  <LINE_NOTATION>
Cn1cc(-c2ccc3cnc(Nc4ccc(-n5cnc(-c6ccccn6)n5)cc4)nc3c2)cn1

>  <GROUP>
Not met

$$$$
>  <LINE_NOTATION>
COc1ccc(-c2cccc3cnc(Nc4ccc(-n5cnc(N6CCOCC6)n5)cc4)nc23)cc1F

>  <GROUP>
Not met

$$$$
>  <LINE_NOTATION>
Cn1cc(-c2ccc3cnc(Nc4ccc(-n5cnc(N6CCOCC6)n5)cc4)nc3c2C2CC2)cn1

>  <GROUP>
Met

$$$$
